Tested on: Wnt pathway (TCF-dependent transcription in HEK293 luciferase reporter cell line with ER-DSH construct)
PROCEDURE_SUMMARY: Cellular assay for Wnt pathway activity (luciferase reporter)
Format: cell-based
CONDITIONS_USED: Homo sapiens; Wnt pathway inhibition, HEK293 luciferase reporter cells (ER-DSH, TCF promoter), 24 hours incubation, estrogen-induced
pIC50: −log10 of the molar value.
OBSERVED_PROPERTY: pIC50

Worked cases, pIC50 given:
1) CC(=O)N(C)CCN(C)c1cncc(Sc2ccc(F)cc2)n1 [Compound 129] | 6.00 to 6.70
2) CC(=O)N(C)CCCc1cncc(Oc2ccc(-c3cccc(N4CCN(C)CC4)n3)cc2)c1 [Compound 316] | 5.00 to 6.00
3) CCOc1ccc(-c2ccc(Oc3cncc(N(C)CCN(C)C(C)=O)n3)cc2)c(F)c1F [Compound 180] | 6.00 to 6.70

Query molecule follows.
Ask: Using the record for CC(=O)N(C)CCN(C)c1cncc(Oc2ccc(-c3cnc(N)cn3)cc2)n1 [Compound 185] , report its pIC50.
Result: > 6.70

* * *

System: Wnt pathway (TCF-dependent transcription in HEK293 luciferase reporter cell line with ER-DSH construct)
PROCEDURE_SUMMARY: Cellular assay for Wnt pathway activity (luciferase reporter)
Type: cell-based
CONDITIONS_USED: Homo sapiens; Wnt pathway inhibition, HEK293 luciferase reporter cells (ER-DSH, TCF promoter), 24 hours incubation, estrogen-induced
This listing pairs molecules with measured IC50.

1. CC(=O)N(C)CCCc1cncc(Oc2ccc(-c3ccc(C)cn3)cc2)n1 | 200 to 1000 nM
2. CC(=O)Nc1ccc(-c2ccc(Oc3cncc(N(C)CCN(C)C(C)=O)n3)cc2)cn1 | < 200 nM
3. CC(=O)Nc1cccc(-c2ccc(Oc3cncc(NCCN(C)C(C)=O)n3)cc2)n1 | 200 to 1000 nM

Ask: Using the record for CCOc1ccc(Oc2cncc(N(C)CCN(C)C(C)=O)n2)cc1 , report its IC50.
Result: < 200 nM

Ask: Using the record for CC(=O)N(C)CCN(C)c1cncc(Oc2ccc(C3CCC(=O)CC3)cc2)n1 , report its IC50.
Result: < 200 nM

Ask: Using the record for CCC(C)(C)c1ccc(Oc2cncc(N(C)CCN(C)C(C)=O)n2)cc1 , report its IC50.
Result: 200 to 1000 nM

Ask: Using the record for CC(=O)N(C)CCN(C)c1cncc(Oc2ccc(Cc3ncc(C(F)(F)F)cc3Cl)cc2)n1 , report its IC50.
Result: 200 to 1000 nM

Ask: Using the record for CC(=O)N(C)CCCc1cncc(Oc2ccc(-c3ccc(N4CCOCC4)nc3)cc2)n1 , report its IC50.
Result: 200 to 1000 nM

* * *

This listing pairs compounds with measured IC50.
Tested on: Wnt pathway (TCF-dependent transcription in HEK293 luciferase reporter cell line with ER-DSH construct)
PROCEDURE_SUMMARY: Cellular assay for Wnt pathway activity (luciferase reporter)
Format: cell-based
CONDITIONS_USED: Homo sapiens; Wnt pathway inhibition, HEK293 luciferase reporter cells (ER-DSH, TCF promoter), 24 hours incubation, estrogen-induced

Worked cases, IC50 given:
1) CC(=O)N(C)CCN(C)c1cncc(Oc2ccc(-c3ccc(CN(C)C(=O)CCCCCNC(=O)CCCCC4SCC5NC(=O)NC54)nc3)cc2)n1 (centres unmarked) [Compound 272] | < 0.2 µM
2) CC(=O)N(C)CCN(C)c1cncc(Oc2ccc(CO)cc2)n1 [Compound 181] | < 0.2 µM

Ask: Using the record for CC(=O)N(C)CCNc1cncc(Oc2ccc(-c3ccc(C#N)nc3)cc2)n1 [Compound 276] , report its IC50.
Result: 0.2 to 1 µM

Ask: Using the record for CC(=O)Nc1ccc(-c2ccc(Oc3cncc(N(C)CCN(C)C(C)=O)n3)c(F)c2)cn1 [Compound 225] , report its IC50.
Result: < 0.2 µM

Ask: Using the record for CC(=O)N(C)CCN(C)c1cncc(Oc2ccc(CC#N)cc2)n1 [Compound 142] , report its IC50.
Result: < 0.2 µM

Ask: Using the record for CC(=O)N(C)CCN(C)c1cncc(Oc2ccc(F)cc2)n1 [Compound 4] , report its IC50.
Result: 0.2 to 1 µM

Ask: Using the record for CC(=O)N(C)CCCc1cncc(Oc2ccc(-c3ccc([N+](=O)[O-])cn3)cc2F)n1 [Compound 274] , report its IC50.
Result: 1 to 10 µM

Ask: Using the record for CC(=O)N(C)CCN(C)c1cncc(Oc2ccc(-c3ccc(C(F)(F)F)cn3)cc2)n1 [Compound 162] , report its IC50.
Result: 0.2 to 1 µM

Ask: Using the record for CC(=O)N(C)CCN(C)c1cncc(Oc2ccc(-c3noc(C)n3)cc2)n1 [Compound 146] , report its IC50.
Result: 0.2 to 1 µM

Ask: Using the record for CN(CCN(C)S(C)(=O)=O)c1cncc(Oc2ccc(F)cc2)n1 [Compound 281] , report its IC50.
Result: 1 to 10 µM

Ask: Using the record for CC(=O)N(C)CCN(C)c1cncc(Oc2ccc3c(c2)OCO3)n1 [Compound 91] , report its IC50.
Result: 0.2 to 1 µM

Ask: Using the record for CC(=O)N(C)CCN(C)c1cncc(Oc2noc3ccccc23)n1 [Compound 224] , report its IC50.
Result: < 0.2 µM

Ask: Using the record for CC(=O)N(C)CCN(C)c1cncc(Oc2ccc3ccncc3c2)n1 [Compound 112] , report its IC50.
Result: < 0.2 µM

Ask: Using the record for CC(=O)N(C)CCN(C)c1cncc(Oc2ccc(-c3ccc(N=[N+]=[N-])cn3)cc2)n1 [Compound 273] , report its IC50.
Result: < 0.2 µM

* * *

Test system: Wnt pathway (TCF-dependent transcription in HEK293 luciferase reporter cell line with ER-DSH construct)
PROCEDURE_SUMMARY: Cellular assay for Wnt pathway activity (luciferase reporter)
Assay type: cell-based
CONDITIONS_USED: Homo sapiens; Wnt pathway inhibition, HEK293 luciferase reporter cells (ER-DSH, TCF promoter), 24 hours incubation, estrogen-induced
Description: 1. Cellular Assay for Wnt Pathway Activity Compounds were tested for their Wnt pathway inhibitory activities using a luciferase reporter cell based assay. […] Compounds, in concentrations from 30 μM down to 1 nM, were incubated for 24 hours on the cells, which were induced for TCF-dependent transcription by the addition of estrogen (10). Luciferase activities were determined using the ONE GLO Luciferase Assay System (Promega) and the ENVISION microplate reader (Perkin Elmer). […]
pIC50: −log10 of the molar value.
OBSERVED_PROPERTY: pIC50

Worked cases, pIC50 given:
1. CC(=O)N(C)CCN(C)c1cncc(Oc2ccc(-c3ccccn3)cc2)n1 | > 6.70
2. CCc1ccnc(-c2ccc(Oc3cncc(N(C)CCN(C)C(C)=O)n3)cc2)c1 | 6.00 to 6.70
3. CC(=O)N(C)CCN(C)c1cncc(Oc2ccc(OC(F)(F)F)cc2)n1 | > 6.70

Query compound follows.
Ask: Using the record for CC(=O)N(C)CCN(C)c1cncc(Oc2ccc(-c3cc(C#N)ccn3)cc2)n1 , report its pIC50.
Result: > 6.70

* * *

System: Wnt pathway (TCF-dependent transcription in HEK293 luciferase reporter cell line with ER-DSH construct)
PROCEDURE_SUMMARY: Cellular assay for Wnt pathway activity (luciferase reporter)
Assay type: cell-based
CONDITIONS_USED: Homo sapiens; Wnt pathway inhibition, HEK293 luciferase reporter cells (ER-DSH, TCF promoter), 24 hours incubation, estrogen-induced
Protocol: 1. Cellular Assay for Wnt Pathway Activity Compounds were tested for their Wnt pathway inhibitory activities using a luciferase reporter cell based assay. […] Compounds, in concentrations from 30 μM down to 1 nM, were incubated for 24 hours on the cells, which were induced for TCF-dependent transcription by the addition of estrogen (10). Luciferase activities were determined using the ONE GLO Luciferase Assay System (Promega) and the ENVISION microplate reader (Perkin Elmer). […]
This listing pairs compounds with measured IC50.

1. CC(=O)N(C)CCN(C)c1cncc(Oc2ccc(-c3cccc(N)n3)cc2)n1 | < 0.2 µM
2. CC(=O)N(C)CCCc1cncc(Oc2ccc(F)cc2)c1 | 0.2 to 1 µM
3. CC(=O)N(C)CCCc1cncc(Oc2ccc(-c3ccc(N4CCOCC4)nc3)cc2)c1 | 0.2 to 1 µM
4. CC(=O)N(C)CCN(C)c1cncc(Oc2ccc3cccnc3c2)n1 | 1 to 10 µM
5. CCN(CCN(CC)c1cncc(Oc2ccc(OC)cc2)n1)C(C)=O | 0.2 to 1 µM
6. COc1cc(-c2ccc(Oc3cncc(N(C)CCN(C)C(C)=O)n3)cc2)ccn1 | 0.2 to 1 µM
7. CN(CCC1(O)CCCC1)c1cncc(Oc2ccc(F)cc2)n1 | 0.2 to 1 µM
8. CC(=O)N(C)CCN(C)c1cncc(Oc2ccc(-c3ccc(C)nc3)cc2)n1 | < 0.2 µM

Query compound follows.
Ask: Using the record for CC(=O)N(C)CCCc1cncc(Oc2ccc(-c3ccc(N4CCOCC4)nc3)cc2F)n1 , report its IC50.
Result: 0.2 to 1 µM
